# Test system: NOMO1
# experimental_details: cell viability relative to DMSO control; higher = less cytotoxic
# condition_context: RPMI 5 mM glucose + 10% FBS; 48 h; 0.569 µM
# cell viability listing for each entry below
assay_endpoint: cell viability

[[record]]
compound = "O=C(CCCCCCC(=O)Nc1ccccc1)NO"
test_value = "109%"

[[record]]
compound = "O=C1NC(O)CCN1[C@@H]1O[C@H](CO)[C@@H](O)[C@H]1O (stereo partly specified)"
test_value = "105%"

[[record]]
compound = "Cc1ccc(-c2ncn(-c3ccc(Nc4nccc(-c5cccc(N6CCOCC6)c5)n4)cc3)n2)cn1"
test_value = "16.4%"

[[record]]
compound = "OC1=CC=C(C=C1)\\C2=C\\C(=O)C3=C(O2)C=C(O)C=C3O"
test_value = "97.9%"

[[record]]
compound = "O=C(CCc1ccc(O)cc1)c1c(O)cc(O)cc1O[C@@H]1O[C@H](CO)[C@@H](O)[C@H](O)[C@H]1O"
test_value = "82.4%"

[[record]]
compound = "CC(=O)O[C@@]12CO[C@@H]1C[C@H](O)[C@]3(C)[C@@H]2[C@H](OC(=O)C4=CC=CC=C4)[C@]5(O)C[C@H](OC(=O)C(O)[C@@H](NC(=O)OC(C)(C)C)C6=CC=CC=C6)C(=C(/[C@@H](O)C3=O)C5(C)C)/C (stereo partly specified)"
test_value = "24.7%"

[[record]]
compound = "O=[N+]([O-])c1cnc(Sc2nnc(O)n2-c2ccc3c(c2)OCCO3)s1"
test_value = "82.8%"

[[record]]
compound = "OCCCNc1cc(-c2ccnc(Nc3cccc(Cl)c3)n2)ccn1"
test_value = "18.8%"

[[record]]
compound = "COc1ccc2c(c1OC)CN1CCc3cc4c(cc3C1C2)OCO4 (stereo unspecified)"
test_value = "100%"

[[record]]
compound = "CCN1C[C@]2(OC(=O)c3ccccc3NC(C)=O)CC[C@H](OC)[C@@]34[C@@H]2C[C@@H]([C@@H]13)[C@@]1(O)C[C@H](OC)[C@H]2C[C@@H]4[C@]1(O)[C@H]2OC"
test_value = "118%"

[[record]]
compound = "CN[C@@H]1C[C@H]2O[C@@](C)([C@@H]1OC)n1c3ccccc3c3c4c(c5c6ccccc6n2c5c31)C(=O)N[C@H]4O"
test_value = "64.7%"


---

# Test system: P12-Ichikawa
# experimental_details: AUC of viability dose-response curve (% viability x log10 dose units); higher = less sensitive
# condition_context: RPMI 5 mM glucose + 10% FBS; 48 h
Friendly reminder: AUC of viability dose-response curve below 400 is Satisfied, at or above is Not satisfied.

[[record]]
molecule = "COC(=O)/C=C/C(=O)OC"
label = "Satisfied"

[[record]]
molecule = "COc1cc(-c2nn(C3CCC(N4CCN(C(C)=O)CC4)CC3)c3ncnc(N)c23)ccc1NC(=O)c1cc2ccccc2n1C (configuration not stated)"
label = "Not satisfied"

[[record]]
molecule = "COc1cccc2c1C(=O)c1c(O)c3c(c(O)c1C2=O)C[C@@](O)(C(C)=O)C[C@@H]3O[C@H]1C[C@H](N)[C@H](O)[C@H](C)O1"
label = "Satisfied"

[[record]]
molecule = "CC(C)(C)NC(=O)[C@H]1CC[C@H]2[C@@H]3CC[C@H]4NC(=O)\\C=C/[C@]4(C)[C@H]3CC[C@]12C"
label = "Not satisfied"

[[record]]
molecule = "Cc1cc(O)c2c(c1)C(=O)c1cc(O)cc(O)c1C2=O"
label = "Not satisfied"

[[record]]
molecule = "N#CC(=C(/N)Sc1ccccc1N)/C(C#N)=C(\\N)Sc1ccccc1N"
label = "Not satisfied"

[[record]]
molecule = "C[N+](C)([O-])CCNc1ccc(NCC[N+](C)(C)[O-])c2c1C(=O)c1c(O)ccc(O)c1C2=O"
label = "Satisfied"

[[record]]
molecule = "O=C(CCCCCCC(=O)Nc1ccccc1)NO"
label = "Satisfied"

[[record]]
molecule = "Nc1nc(OCc2ccccc2)c2nc[nH]c2n1"
label = "Not satisfied"

[[record]]
molecule = "CC1=C(CC/C(C)=C/CCC2=CCC(C3=CC(=O)OC3O)OC2O)C(C)(C)CCC1 (configuration not stated)"
label = "Not satisfied"

[[record]]
molecule = "CC[C@@]1(O)C[C@H](O[C@H]2C[C@H](N(C)C)[C@H](O[C@H]3C[C@H](O)[C@H](O[C@H]4CCC(=O)[C@H](C)O4)[C@H](C)O3)[C@H](C)O2)c2c(cc3c(c2O)C(=O)c2c(O)cccc2C3=O)[C@H]1C(=O)OC"
label = "Not satisfied"

[[record]]
molecule = "Cl.Nc1ccn([C@@H]2O[C@H](CO)[C@@H](O)C2(F)F)c(=O)n1"
label = "Satisfied"

[[record]]
molecule = "Cc1cc(Cl)ccc1OCCCC(=O)NO"
label = "Satisfied"

[[record]]
molecule = "O=C(NNC(=O)c1ccc(CN[S+](=O)([O-])c2ccc(F)c(Cl)c2)cc1)c1ccccc1"
label = "Not satisfied"

